- PARTICULARS: 328.15 K; 101.3 kPa; Liquid; Vibrating tube method
± gives the expanded uncertainty stated by the source.
VALUE KIND: mass density
Just the number plus its unit, please.

mass density in this record for COC(=O)OC [dimethyl carbonate] : 1023.03 ± 2.5 kg/m3

Documented mass density of CCCC[n+]1ccn(C)c1.O=S(=O)([N-]S(=O)(=O)C(F)(F)F)C(F)(F)F : 1407.45 ± 3.4 kg/m3

Record summary for CCOC(=O)OCC [diethyl carbonate] : reported mass density = 935.08 ± 2.3 kg/m3

The recorded mass density for entry CCn1cc[n+](C)c1.O=S(=O)([N-]S(=O)(=O)C(F)(F)F)C(F)(F)F equals 1488.31 ± 3.6 kg/m3
